measurement-target: thrombin (Homo sapiens, UniProt P00734;P00734 328-363;364-622)
experiment-notes: reflectometric interference spectroscopy (RIfS), immobilized aptamer; PBS + MgCl2; sigmoidal fit of dEOT; Binding buffer PBS + MgCl2 (concentration, pH not given); TBA preheated 95 °C 5 min, cooled to room temperature; flow cell, assay temperature not stated
measured-attribute: Kd (nM)
Give bare numbers, in nM.

In: Give the value of Kd reported for the following: GGTTGGTGTGGTTGG (structured_DNA, 5'-biotin) [TBA 15-mer (5'-biotin)]
Out: 900

Data provenance is paper PMC6833485.
